B1: RTP4 (parent)
chain: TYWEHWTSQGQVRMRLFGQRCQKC

# Variants of: B1
# method summary: protein stability index of a GFP-peptide fusion (GPS, HEK-293T) (PSI 1-6); higher = more stable;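 also: lentivirally expressed fusions sorted by FACS into six bins by GFP to DsRed ratio, PSI derived from sequencing read proportions per bin multiplied by bin number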
# stated conditions: c terminus: a fixed tail appended
protein stability index below 2 gives false (0); protein stability index at or above it gives true (1).

# residue change, label value
data = [
    ("Q11A", "false (0)"),
    ("G18F", "false (0)"),
    ("H5D", "true (1)"),
    ("Q9I", "true (1)"),
    ("R20K", "false (0)"),
]

Input line: Check if protein stability index >= 2 (inclusive). Item: C21E
Output line: true (1)

Input line: Check if protein stability index >= 2 (inclusive). Item: R15H
Output line: false (0)

Input line: Check if protein stability index >= 2 (inclusive). Item: S8T
Output line: true (1)

Input line: Check if protein stability index >= 2 (inclusive). Item: L16T
Output line: false (0)

Input line: Check if protein stability index >= 2 (inclusive). Item: H5R
Output line: false (0)

Input line: Check if protein stability index >= 2 (inclusive). Item: R20E
Output line: false (0)

Input line: Check if protein stability index >= 2 (inclusive). Item: R20W
Output line: true (1)

Input line: Check if protein stability index >= 2 (inclusive). Item: M14K
Output line: true (1)

Input line: Check if protein stability index >= 2 (inclusive). Item: Q9R
Output line: true (1)

Input line: Check if protein stability index >= 2 (inclusive). Item: G18Q
Output line: false (0)

Cited source: the supplement of paper PMC10567573
